# System: Polyketide synthase Pks13 (Mycobacterium tuberculosis (strain ATCC 25618 / H37Rv)), I6X8D2 [D1644G,N1640K]
# run.description: Inhibition of Pks13 D1644G/N1640K double mutant thioesterase domain in multidrug-resistant Mycobacterium tuberculosis KZN494 assessed as reduction in bacterial growth by microplate alamar blue assay
assay.readout: MIC=<90 (mg/L)
One number for each entry, in mg/L.

Past entries and their recorded results:
1) CC1COc2c(N3CCN(C)CC3)c(F)cc3c(=O)c(C(=O)O)cn1c23 (stereo unspecified)    0.5
2) NC[C@H]1O[C@H](O[C@H]2[C@H](O)[C@@H](O[C@H]3O[C@H](CO)[C@@H](O)[C@H](N)[C@H]3O)[C@H](N)C[C@@H]2N)[C@H](O)[C@@H](O)[C@@H]1O    2
3) CO[C@H]1/C=C/O[C@@]2(C)Oc3c(C)c(O)c4c(O)c(c(/C=N/N5CCN(C)CC5)c(O)c4c3C2=O)NC(=O)/C(C)=C\C=C\[C@H](C)[C@H](O)[C@@H](C)[C@@H](O)[C@@H](C)[C@H](OC(C)=O)[C@@H]1C    128
4) O=c1oc2cc(O)ccc2c2oc3ccc(O)c(CN4CCCCC4)c3c12    0.0039

Please find the next compound below.
Input NNC(=O)c1ccncc1 . Output MIC=<90: 16
